Biological target: human recombinant serotonin (5-Hydroxytryptamine) 5-HT6 receptor (Homo sapiens)
Construct: expressed in transfected cells; host or cells: human HeLa cells
Sequence (P50406 whole entry): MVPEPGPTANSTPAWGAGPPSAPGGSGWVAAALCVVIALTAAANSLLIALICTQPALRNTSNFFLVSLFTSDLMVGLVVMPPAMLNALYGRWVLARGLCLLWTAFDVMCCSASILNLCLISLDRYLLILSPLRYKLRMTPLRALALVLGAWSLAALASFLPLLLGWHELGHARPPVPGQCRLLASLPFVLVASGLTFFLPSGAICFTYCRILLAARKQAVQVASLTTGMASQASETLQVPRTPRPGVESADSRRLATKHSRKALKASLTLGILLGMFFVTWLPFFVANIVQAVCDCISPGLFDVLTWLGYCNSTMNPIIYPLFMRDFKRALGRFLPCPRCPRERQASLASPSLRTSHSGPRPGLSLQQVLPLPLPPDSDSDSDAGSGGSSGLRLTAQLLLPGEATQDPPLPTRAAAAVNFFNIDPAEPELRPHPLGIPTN
Experiment: Serotonin 5-HT6 radioligand binding assay ([3H]LSD)
Settings: compound at 1 μM, HeLa cells, read-out: Percent Inhibition of ligand binding, Serotonin (1 μM) 5-HT6
reported_endpoint: inhibition at 1 µM (%)
Just the number in %, nothing appended.

May I ask what inhibition at 1 µM has been recorded for Cc1ccc2c(c1)c1c(n2CC(=O)c2ccc(F)cc2)CCN(C)C1 [Compound 1-39] ? 62

Please do the same for CN1CCc2c(c3cc(Cl)ccc3n2CC(=O)c2ccc(F)cc2)C1 [Compound 1-37] as well. 71

Please do the same for Cc1ccc2c(c1)c1c(n2CCc2ccc(C)nc2)CCN(CCCO)C1 [Compound 1-42] as well. 43

Please do the same for Cc1ccc2c(c1)c1c(n2CCc2ccc(C(F)(F)F)nc2)CCNC1 [Compound 1-41] as well. 14

Please do the same for Cc1ccc2c(c1)c1c(n2CC(=O)c2ccccc2)CCN(C)C1 [Compound 1-35] as well. 14

====

Assign inhibition at 1 µM to each entry below.
Target: human recombinant histamine H1 receptor (Homo sapiens)
Sequence (P35367 whole entry): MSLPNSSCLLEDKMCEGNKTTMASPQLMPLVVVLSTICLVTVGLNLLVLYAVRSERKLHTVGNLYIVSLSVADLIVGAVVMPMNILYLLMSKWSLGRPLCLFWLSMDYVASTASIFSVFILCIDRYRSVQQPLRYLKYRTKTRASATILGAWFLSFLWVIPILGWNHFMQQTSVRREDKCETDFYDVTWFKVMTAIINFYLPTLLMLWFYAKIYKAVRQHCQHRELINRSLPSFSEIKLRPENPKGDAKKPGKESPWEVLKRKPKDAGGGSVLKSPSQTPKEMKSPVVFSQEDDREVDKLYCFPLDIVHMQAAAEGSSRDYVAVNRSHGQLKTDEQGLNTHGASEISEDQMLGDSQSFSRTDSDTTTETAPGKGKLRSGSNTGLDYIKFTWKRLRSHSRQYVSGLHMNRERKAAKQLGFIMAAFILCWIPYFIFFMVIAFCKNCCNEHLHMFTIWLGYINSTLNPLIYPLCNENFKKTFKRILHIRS
Test: Histamine H1 radioligand binding assay ([3H]Pyrilamine)
Conditions: compound at 1 μM, receptor expressed in CHO cells
Protocol: To evaluate in radioligand binding assays the activity of compounds of the invention, human recombinant histamine H1 receptor expressed in Chinese hamster ovary (CHO) cells (De Backer, M. D. et al., Biochem. Biophys. Res. Comm. 197(3):1601, 1993) in a modified Tris-HCl buffer (50 mM Tris-HCl, pH 7.4, 2 mM MgCl2, 100 mM NaCl, 250 mM Sucrose) was used. Compounds of the invention were incubated with 1.2 nM [^3H]Pyrilamine for 180 min at 25° C. […]
Just the number in %, nothing appended.

May I ask what inhibition at 1 µM has been recorded for Cc1ccc2c(c1)c1c(n2CC(C)c2ccncc2)CCN(C)C1 (stereo not drawn) ? 90

Please do the same for Cc1ccc2c(c1)c1c(n2CCc2ccc(C)nc2)CC(C)N(C)C1 (stereo not drawn) as well. 100

Please do the same for CN1CCc2c(c3cc(Cl)ccc3n2CC(=O)c2ccc(F)cc2)C1 as well. 83

Please do the same for Cc1ccc2c(c1)c1c(n2CCc2ccc(C(F)(F)F)nc2)C(C)CN(C)C1 (stereo not drawn) as well. 65

Please do the same for Cc1ccc2c(c1)c1c(n2CCc2ccc(C)nc2)CCN(CCCCO)C1 as well. 97

Please do the same for Cc1ccc2c(c1)c1c(n2CC(=O)c2ccccc2)CCN(C)C1 as well. 52

Please do the same for Cc1ccc2c(c1)c1c(n2CC(C)(C)c2ccncc2)CCN(C)C1 as well. 94

Please do the same for Cc1ccc2c(c1)c1c(n2CC(O)(c2ccc(F)cc2)C2CCCCC2)CCN(C)C1 (stereo not drawn) as well. 22

Please do the same for Cc1ccc2c(c1)c1c(n2CC(=O)c2ccc(F)cc2)CCN(C)C1 as well. 86

====

Target: human recombinant serotonin (5-Hydroxytryptamine) 5-HT2A receptor (Homo sapiens, UniProt P28223)
Construct: expressed in transfected cells; host or cells: Chinese hamster ovary (CHO-K1) cells
Sequence (P28223 whole entry): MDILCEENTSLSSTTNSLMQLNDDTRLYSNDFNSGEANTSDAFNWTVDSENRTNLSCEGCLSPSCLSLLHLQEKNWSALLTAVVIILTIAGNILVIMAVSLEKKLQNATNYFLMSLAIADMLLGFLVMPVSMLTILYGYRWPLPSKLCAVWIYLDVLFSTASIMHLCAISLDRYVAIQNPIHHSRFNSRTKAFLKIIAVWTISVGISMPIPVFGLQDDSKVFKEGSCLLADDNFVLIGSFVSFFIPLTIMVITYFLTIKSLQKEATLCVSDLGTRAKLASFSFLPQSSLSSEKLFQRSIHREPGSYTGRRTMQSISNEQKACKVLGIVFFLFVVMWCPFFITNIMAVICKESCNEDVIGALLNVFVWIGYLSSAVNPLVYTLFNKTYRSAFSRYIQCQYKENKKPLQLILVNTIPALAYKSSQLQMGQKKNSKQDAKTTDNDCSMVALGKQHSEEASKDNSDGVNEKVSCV
Assay: Serotonin 5-HT2A radioligand binding assay ([3H]Ketanserin)
Conditions: compound at 1 μM; 0.5 nM [3H]Ketanserin; CHO-K1 cells; read-out: Percent Inhibition of ligand binding, Serotonin (1 μM) 5-HT2A
reported_endpoint: inhibition at 1 µM

May I ask what inhibition at 1 µM has been recorded for CCC(O)(Cn1c2c(c3cc(C)ccc31)CN(C)CC2)c1ccc(F)cc1 (stereo not drawn) ? 102%

Please do the same for Cc1ccc2c(c1)c1c(n2CCc2ccc(C)nc2)CCN(CCCCO)C1 as well. 47%

Please do the same for CN1CCc2c(c3cc(Cl)ccc3n2CC(O)(c2ccc(F)cc2)C2CCC2)C1 (stereo not drawn) as well. 97%

Please do the same for CN1CCc2c(c3cc(Cl)c(Cl)cc3n2CC(C)(O)c2ccncc2)C1 (stereo not drawn) as well. 96%

Please do the same for CN1CCc2c(c3cccc(F)c3n2CC(C)(O)c2ccncc2)C1 (stereo not drawn) as well. 82%

Please do the same for COc1ccc(C(C)(O)Cn2c3c(c4cc(C)ccc42)CN(C)CC3)cc1 (stereo not drawn) as well. 97%

Please do the same for Cc1ccc2c(c1)c1c(n2CC(C)(O)c2ccncc2)CCN(C)C1 (stereo not drawn) as well. 88%

Please do the same for Cc1ccc2c(c1)c1c(n2CCc2ccc(C)nc2)CCN(CCCO)C1 as well. 87%

Please do the same for CN1CCc2c(c3cc(Cl)ccc3n2CC(=O)c2ccccc2)C1 as well. 98%

Please do the same for COc1ccc2c(c1)c1c(n2CC(C)(O)c2ccncc2)CCN(C)C1 (stereo not drawn) as well. 50%

Please do the same for CCCCC(O)(Cn1c2c(c3cc(Cl)ccc31)CN(C)CC2)c1ccc(F)cc1 (stereo not drawn) as well. 98%

Please do the same for Cc1ccc2c(c1)c1c(n2CCc2ccc(C)nc2)CCN(CCC#N)C1 as well. 0%

Please do the same for Cc1ccc2c(c1)c1c(n2CCc2ccc(C(F)(F)F)nc2)CCNC1 as well. 66%

Please do the same for CN1CCc2c(c3ccc(Cl)cc3n2CC(C)(O)c2ccncc2)C1 (stereo not drawn) as well. 82%

Please do the same for CN1CCc2c(c3ccccc3n2CC(C)(O)c2ccncc2)C1 (stereo not drawn) as well. 74%

Please do the same for CN1CCc2c(c3cc(Cl)ccc3n2CC(=O)c2ccc(Cl)cc2)C1 as well. 100%

Please do the same for Cc1ccc2c(c1)c1c(n2CC(C)(O)c2ccc(O)cc2)CCN(C)C1 (stereo not drawn) as well. 102%

Please do the same for CN1CCc2c(c3cc(Cl)ccc3n2CC(=O)c2ccc(F)cc2)C1 as well. 98%
